Experiment: Cytotoxicity MTT assay, HaCaT cells
Type: cell-based, human
Conditions: human, HaCaT cells (human epithelial cells); HaCaT cells, MTT, 72 h
measured-attribute: CC50 at 72 h

Use these answered entries as a reference point.
- compound: "O=C(C1CCCCC1)N1CC(=O)N2CCc3ccccc3C2C1 (stereo not drawn) [Praziquantel, praziquantel, reference compound]"
  CC50 at 72 h: "> 500 µM"
- compound: "COc1cc(C[C@@H](C)[C@H](C)Cc2ccc3c(c2)OCO3)ccc1O"
  CC50 at 72 h: "> 500 µM"

Please turn your attention to the following entry.
Which CC50 at 72 h value is on record for COc1cc([C@H]2O[C@@H](c3ccc(O)c(OC)c3)[C@@H](C)[C@@H]2C)ccc1O ?
> 500 µM

###

Test: Cytotoxicity MTT assay, Vero cells
Format: cell-based, African green monkey
Settings: African green monkey, Vero cells (monkey kidney cells); Vero cells, MTT, 72 h
measured-attribute: CC50 at 72 h

- molecule: "COc1cc(C[C@@H](C)[C@H](C)Cc2ccc3c(c2)OCO3)ccc1O [Threo-austrobailignan-6, threo-austrobailignan-6]"
  reported-result: "> 500 µM"
- molecule: "O=C(C1CCCCC1)N1CC(=O)N2CCc3ccccc3C2C1 (stereo not drawn) [Praziquantel, praziquantel, reference compound]"
  reported-result: "> 500 µM"

Let us examine a further case.
Record request: CC50 at 72 h value, item COc1cc([C@H]2O[C@@H](c3ccc(O)c(OC)c3)[C@@H](C)[C@@H]2C)ccc1O [Verrucosin, verrucosin]
> 500 µM
